Assay: binders of probe aHhip on microarray, primary screen, stem cell growth factor project, biochemical, small-molecule microarray, fluorescence 635/667 (AID 1087);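 further: score merges spot fluorescence at 667nm with spot signal to noise ratio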
Conditions: higher = more signal
readout-label: composite z-score
// no unit, no text: just the number

Value of composite z-score reported for the compound Cc1ccc(S[C@]2(C(=O)NCCCN(C)C)CC(=O)N(Cc3ccccc3)[C@@H]2c2ccc(CO)cc2I)cc1 is -0.427

Value of composite z-score reported for the compound COC(=O)c1c(CC[C@@H](CO)NC(=O)N[C@H](Cn2cc(-c3cncn3C)nn2)C(C)C)oc(C(C)=O)c1C(=O)OC is -0.261

Value of composite z-score reported for the compound CC(C)N1CC=CC23O[C@@H]4/C=C\CCCOC(=O)C4[C@H]2C(=O)N(CCO)[C@@H]3C1=O (stereo partly drawn) is -0.257

Value of composite z-score reported for the compound Cc1ccc(N2C(=O)c3ccccc3[C@@H](C(=O)NCc3ccccc3)[C@@H]2c2ccc(CO)cc2)nc1 is 0.0807

Value of composite z-score reported for the compound C#CCCCON=C1C[C@@H](O)[C@@H](O)[C@@H]2[C@@H]3C(=O)N(Cc4ccc5c(c4)OCO5)C(=O)[C@@H]3CC[C@H]12 is -0.342

Value of composite z-score reported for the compound CO[C@H]1COC(=O)CC=C[C@H](C)[C@@H](OC)COC(=O)[C@H](Cc2ccccc2)NC(=O)CC=C[C@@H]1C is 0.0524

====

Tested on: XIP peptide (Xip251-270) binding
Assay: small-molecule binders of XIP peptide, primary screen, biochemical, small-molecule microarray, fluorescence 635/667 nm, 0.1 µg/mL protein (AID 1182)
Details: fluorescent protein binding, 635 nm, higher = more signal, called active from +8 up or from −8 down
Please use true whenever composite z-score is not below 0.9, and false whenever it is.

molecule: COC(=O)[C@@]1(Cc2ccccc2)[C@H]2c3cc(C(=O)N4CCCC4)n(CCN4CNCC4=O)c3C[C@H]2CN1C(=O)c1ccccc1
class-assignment: true
--
molecule: C[N+](C)(C)CCCC[C@@H]1NC(=O)[C@H]2C[C@@H](C(=O)NCc3ccc(F)cc3)[C@@H](c3cccc(OCCO)c3)N2C1=O
class-assignment: true
--
molecule: C=C(COC)/C(=C/C[C@@H](OC(C)=O)c1cccc(OCCO)c1)c1cc(C(=O)OC)ccc1OC
class-assignment: false
--
molecule: CCOC(=O)C1=CC[C@@H](c2ccccc2)N(S(=O)(=O)c2ccc(C)cc2)[C@H]1C
class-assignment: false
--
molecule: COc1cccc([C@@H]2[C@@H](C)CC[C@H]3C(=O)N(C)[C@@H](C(C)C)C(=O)N23)c1
class-assignment: false

Enquiry: Item C#CCCCON=C1C[C@@H](O)[C@@H](O)[C@@H]2[C@@H]3C(=O)N(Cc4ccc5c(c4)OCO5)C(=O)[C@@H]3CC[C@@H]12 with composite z-score of 0.9 or above?
Return: false

Enquiry: Item N#Cc1ccc(NN2C(C(O)c3ccc(I)cc3)C=CC3C(=O)N(c4ccccc4)C(=O)C32)cc1 (stereo not given) with composite z-score of 0.9 or above?
Return: false

Enquiry: Item COCCOC(=O)N1C(=O)[C@@]2(c3ccccc31)[C@H](C(=O)N1CCc3cc(OC)c(OC)cc3C1)[C@H]1C(=O)O[C@H](c3ccccc3)[C@H](c3ccccc3)N1[C@@H]2c1ccccc1OCCO with composite z-score of 0.9 or above?
Return: false

Enquiry: Item O=C(NCC(O)CO)[C@]1(Cc2ccccc2)N=C(c2ccc(OCCCO)cc2)O[C@@H]1c1ccccc1 (stereo not given in full) with composite z-score of 0.9 or above?
Return: true

Enquiry: Item CCC(=O)[C@]12O[C@@]3([C@@H]4C(=O)OCC[C@@H]41)N(Cc1ccccc1)C(C)=C(C(=O)OC)[C@@H](c1ccccc1)N3C2=O with composite z-score of 0.9 or above?
Return: false

Enquiry: Item COc1ccc(CCN2C(=O)[C@@]3(c4ccc([N+](=O)[O-])cc4)CC(=O)N(CC45CC6CC(CC(C6)C4)C5)[C@@H]3c3ccc(CO)cc32)cc1 with composite z-score of 0.9 or above?
Return: false

Enquiry: Item CCOC(=O)C[C@H]1[C@H](OC(=O)c2cc3ccccc3oc2=O)[C@@H](NC(=O)c2ccc3ccccc3c2)c2cc(OCCCO)ccc2N1C(=O)c1ccc2ccccc2n1 with composite z-score of 0.9 or above?
Return: false

Enquiry: Item C[C@@H]1NC(=O)CC=C[C@@H](C)[C@@H]2C=C[C@H](O)[C@@H](COC(=O)[C@H](C)NC(=O)CC=C[C@@H](C)[C@@H]3C=C[C@H](O)[C@@H](COC1=O)O3)O2 with composite z-score of 0.9 or above?
Return: false

Enquiry: Item O=C(CS)NCCCCCCNC(=O)[C@@H]1C[C@@H]2C(=O)N[C@@H](Cc3ccccc3)C(=O)N2[C@@H]1c1ccc(O)cc1 with composite z-score of 0.9 or above?
Return: false

Enquiry: Item CO[C@]12C=C(Br)[C@@H](C[C@@H]1c1ccccc1)[C@@]1(CO1)C2=O with composite z-score of 0.9 or above?
Return: false

Enquiry: Item C=CC[C@]1(C(=O)O)N=C(c2ccc(OCCCO)cc2)O[C@H]1c1ccccc1 with composite z-score of 0.9 or above?
Return: true

====

Assay: CREB reporter modulators without forskolin, primary screen, cell-based, PC12, CRE-LacZ reporter, unstimulated (AID 1145)
Conditions: no forskolin, luminescence, 4.5 h, higher = more signal, called active from +8 up or from −8 down
# maps each entry to its z-score
// no unit, no text: just the number

compound: CCN1C(C)=C(C(=O)OC)[C@@H](c2ccccc2)N2C(=O)[C@@]3(C(=O)OC)O[C@@]12[C@@H]1C(=O)CCC[C@@H]13
z-score: 0.462
//
compound: O=C1C2C=CC(C(O)C#Cc3ccccc3)N(Nc3ccccc3)C2C(=O)N1c1ccccc1 (centres undefined)
z-score: 0.24

Value of z-score reported for the compound COC(=O)[C@@]1(Cc2ccc(OC)cc2)[C@H]2c3cc(C(=O)N(C)C)n(Cc4ccc(C)c(F)c4F)c3C[C@H]2CN1C(=O)c1ccccc1 is 1.53

Value of z-score reported for the compound COc1cc(CO)cc(I)c1O[C@H]1C=C(C(=O)NCCO)C[C@@H](N(CC2CCCCC2)C(=O)c2cc3ccccc3oc2=O)[C@@H]1O is 1.13

====

Test: small-molecule microarray binders of probe aDKK1, primary screen, biochemical, biotinylated probe, 635/667 nm fluorescence (AID 1099);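 further: score merges 667nm spot fluorescence with signal to noise across triplicate slides; reference of the scale not given here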
Settings: higher = more signal
# maps each entry to its composite z-score

Recorded composite z-score, per entry:
compound: O=C1OCC=C[C@H]2OC34C=CCN(Cc5ccccc5)C(=O)[C@H]3N(CCCCCO)C(=O)[C@@H]4[C@@H]12 (stereo not given in full)
result: -0.212
//
compound: CCOC(=O)C1=CCC(c2cccc3ccccc23)N(S(=O)(=O)c2ccc(C)cc2)C1 (stereo not given)
result: 0.981
//
compound: CCC#CCN(Cc1ccccc1Br)[C@H](/C=C/c1ccccc1)[C@@H](O)Cc1ccccc1
result: 0.0099
//
compound: CO[C@H]1COC(=O)[C@H](C)COC(=O)[C@H](Cc2ccccc2)NC(=O)CC=C[C@H]1C
result: -0.345
//
compound: C[C@@H]1C=CCC(=O)OC[C@H]2O[C@@H](C=C[C@@H]2O)[C@H](C)C=CCC(=O)OC[C@H]2O[C@H]1C=C[C@@H]2O
result: -0.384
//
compound: CC(C)N1CC=CC23O[C@@H]4/C=C\CCCOC(=O)C4[C@H]2C(=O)N(CCCCCO)[C@@H]3C1=O (stereo not given in full)
result: -0.195
//
compound: CCCCO[C@H]1C[C@H]2C(Br)=C[C@@]1(CO)C(=O)[C@]21CO1
result: -0.482
//
compound: Cc1ccc(N2C(=O)c3ccccc3[C@@H](C(=O)NCc3ccccc3)[C@@H]2c2ccc(CO)cc2)nc1
result: 0.601
//
compound: C=C(/C(=C/C[C@@H](OC(=O)c1ccncc1)c1ccc(CO)o1)c1cnc2ccccc2c1)C(C)C
result: 0.138
//
compound: CC(C)(C)OC(=O)CC[C@@]1(C(=O)NCc2ccccc2)N=C(c2ccc(OCCCO)cc2)O[C@@H]1c1ccccc1
result: 1.29

With those in mind, consider the next compound.
Value of composite z-score reported for the compound [N-]=[N+]=NCc1ccccc1[C@H]1OC(c2ccc(OCCCO)cc2)=N[C@@]1(Cc1ccccc1N=[N+]=[N-])C(=O)NCc1ccccc1 is 1.09

====

Test: basal MM1S mitochondrial membrane potential changes, profiling panel, cell-based, JC-1 fluorescence, 24 h, 100 nL compound (AID 1170)
Details: higher = more signal
Please use 1.0 whenever z-score is not below -0.3, and 0.0 whenever it is.

// known answers, use as guide
molecule: COc1ccc(CCNC(=O)[C@@]2(c3ccc([N+](=O)[O-])cc3)CC(=O)N(C(C)C)[C@@H]2c2ccc(CO)cc2)cc1
class-assignment: 1.0
//
molecule: CC(C)CNC(=O)[C@@]1(C)c2ccccc2C(=O)N(Cc2ccc(OC(F)(F)F)cc2)[C@H]1c1ccc(CO)cc1
class-assignment: 1.0
//
molecule: C=C[C@H](OC)[C@@H](OC(=O)Nc1ccc(SC)cc1)c1ccc(O)c(F)c1
class-assignment: 0.0
//
molecule: O=C1c2ccccc2[C@](Cc2ccccc2I)(C(=O)O)[C@H](c2ccc(CO)cc2)N1C1CCCCC1
class-assignment: 1.0

# ---- query molecule ----
Enquiry: Item CCN1C(C)=C(C(=O)OC)[C@@H](c2ccccc2)N2C(=O)[C@@]3(C(=O)OC)O[C@@]12[C@@H]1C(=O)N(c2ccccc2)C(=O)[C@@H]13 with z-score of -0.3 or above?
Return: 1.0
